Numbers sourced from patent US20220048967A1.

What hGIPR cAMP Rel EC50 was measured for each of the following?
target.system: T1, human gastric inhibitory peptide receptor (GIPR) (human, UniProt P48546 22-466)
T1 sequence (looked up): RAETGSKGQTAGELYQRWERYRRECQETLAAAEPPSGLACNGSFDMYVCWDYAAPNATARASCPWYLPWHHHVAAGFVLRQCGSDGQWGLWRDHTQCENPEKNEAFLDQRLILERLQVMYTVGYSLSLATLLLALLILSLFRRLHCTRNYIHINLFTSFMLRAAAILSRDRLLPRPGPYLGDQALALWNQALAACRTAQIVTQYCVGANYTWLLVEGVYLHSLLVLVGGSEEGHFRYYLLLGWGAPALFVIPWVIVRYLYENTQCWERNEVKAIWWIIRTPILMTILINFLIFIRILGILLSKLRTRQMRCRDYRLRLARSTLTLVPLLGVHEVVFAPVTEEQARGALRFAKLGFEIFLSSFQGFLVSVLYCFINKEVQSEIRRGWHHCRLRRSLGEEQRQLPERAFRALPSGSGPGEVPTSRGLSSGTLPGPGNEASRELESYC
protocol.details: cell-based or functional assay
Numbers only, in nM.

XXEGTFTSDYSIXLDXKAQXAFVEYLIEGGPSSGAPPPS (D-Tyr1; Aib2; αMeL13; Orn16; K17 conjugated to (2-[2-(2-Amino-ethoxy)-ethoxy]-acetyl)2-(γ-Glu)-CO-(CH2)18-CO2H; Aib20; C-terminal amide) [Example 360] | 0.197
XXEGTFTSDYSIXLDXKAQXEFIEXLIEGGPSSGAPPPS (D-Tyr1; Aib2; αMeL13; Orn16; K17 conjugated to (2-[2-(2-Amino-ethoxy)-ethoxy]-acetyl)2-(γ-Glu)-CO-(CH2)18-CO2H; Aib20; αMeY25; C-terminal amide) [Example 380] | 0.142
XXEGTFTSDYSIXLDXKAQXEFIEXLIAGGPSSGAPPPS (D-Tyr1; Aib2; αMeL13; Orn16; K17 conjugated to (2-[2-(2-Amino-ethoxy)-ethoxy]-acetyl)2-(γ-Glu)-CO-(CH2)16-CO2H; Aib20; αMeY25; C-terminal amide) [Example 375] | 0.0471
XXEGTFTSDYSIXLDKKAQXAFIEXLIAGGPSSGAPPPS (D-Tyr1; Aib2; αMeL13; K17 conjugated to (2-[2-(2-Amino-ethoxy)-ethoxy]-acetyl)2-(γ-Glu)-CO-(CH2)16-CO2H; Aib20; αMeY25; C-terminal amide) [Example 376] | 0.0723
YXEGTFTSDYSIXLDKKAQXEFIEXLIAGGPSSGAPPPS (Aib2; αMeL13; K17 conjugated to (2-[2-(2-Amino-ethoxy)-ethoxy]-acetyl)2-(γ-Glu)-CO-(CH2)18-CO2H; Aib20; αMeY25; C-terminal amide) [Example 367] | 0.0179

Below are 2 binders. Give each one its hGIPR cAMP Rel EC50.
1. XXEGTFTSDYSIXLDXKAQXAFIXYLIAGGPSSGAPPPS (D-Tyr1; Aib2; αMeL13; Orn16; K17 conjugated to (2-[2-(2-Amino-ethoxy)-ethoxy]-acetyl)2-(γ-Glu)-CO-(CH2)16-CO2H; Aib20; D-Glu24; C-terminal amide) [Example 363]
2. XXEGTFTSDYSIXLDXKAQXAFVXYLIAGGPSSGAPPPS (D-Tyr1; Aib2; αMeL13; Orn16; K17 conjugated to (2-[2-(2-Amino-ethoxy)-ethoxy]-acetyl)2-(γ-Glu)-CO-(CH2)18-CO2H; Aib20; D-Glu24; C-terminal amide) [Example 362]

Result:
[0.145, 0.302]

Ask: Which value of hGIPR cAMP Rel EC50 has been reported for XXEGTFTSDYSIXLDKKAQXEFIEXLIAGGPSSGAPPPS (D-Tyr1; Aib2; αMeL13; K17 conjugated to (2-[2-(2-Amino-ethoxy)-ethoxy]-acetyl)2-(γ-Glu)-CO-(CH2)16-CO2H; Aib20; αMeY25; C-terminal amide) [Example 374] in the records?
Result: 0.0468
